Target: Cannabinoid receptor 2 (Homo sapiens, UniProt P34972)
Sequence (P34972 whole entry): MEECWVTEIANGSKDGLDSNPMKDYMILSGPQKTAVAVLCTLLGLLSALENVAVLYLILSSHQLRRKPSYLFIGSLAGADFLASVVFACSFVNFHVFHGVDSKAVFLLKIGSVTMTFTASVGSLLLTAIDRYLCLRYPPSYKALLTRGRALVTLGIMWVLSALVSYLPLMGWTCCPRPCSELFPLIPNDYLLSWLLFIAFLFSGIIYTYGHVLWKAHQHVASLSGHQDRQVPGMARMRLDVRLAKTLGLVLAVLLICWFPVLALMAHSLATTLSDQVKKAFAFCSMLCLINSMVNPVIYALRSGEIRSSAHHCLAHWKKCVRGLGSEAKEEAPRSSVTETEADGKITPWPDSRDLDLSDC
Experiment: Agonist activity at human CB2 receptor expressed in CHO membranes assessed as [35S]-GTPgammaS binding after 1 hr
Binary call on EC50 with cut-off 3 nM: strictly below means Criterion met, and equality or higher means Criterion not met.

CCCCCOc1ccccc1-c1cc(C(=O)NC23CC4CC(CC(C4)C2)C3)no1 : Criterion met
CCCCCOc1ccccc1-c1cc(C(=O)NC2CCCCC2)no1 : Criterion met
CCCCCOc1ccccc1-c1cc(C(=O)NC23CC4CC(CC2C4)C3)no1 : Criterion not met
CCCCCOc1ccccc1-c1cc(C(=O)NC2CCCC2)no1 : Criterion met
CCCOc1ccccc1-c1cc(C(=O)NC23CC4CC(CC(C4)C2)C3)no1 : Criterion met
CCCCCOc1ccccc1-c1cc(C(=O)NC2CCCCCCC2)no1 : Criterion met
CCCCCOc1ccccc1-c1cc(C(=O)NC2C3CC4CC(C3)CC2C4)no1 (configuration not stated) : Criterion not met
CCCCOc1ccccc1-c1cc(C(=O)NC23CC4CC(CC(C4)C2)C3)no1 : Criterion met
CCCCCOc1ccccc1-c1cc(C(=O)NC2CCC2)no1 : Criterion not met
COc1ccccc1-c1cc(C(=O)NC23CC4CC(CC(C4)C2)C3)no1 : Criterion met
CCCCCCOc1ccccc1-c1cc(C(=O)NC23CC4CC(CC(C4)C2)C3)no1 : Criterion not met
CCCCCOc1ccccc1-c1cc(C(=O)NC2CCCCCC2)no1 : Criterion not met
